Biological target: Aromatase (Homo sapiens)
Sequence (P11511 whole entry): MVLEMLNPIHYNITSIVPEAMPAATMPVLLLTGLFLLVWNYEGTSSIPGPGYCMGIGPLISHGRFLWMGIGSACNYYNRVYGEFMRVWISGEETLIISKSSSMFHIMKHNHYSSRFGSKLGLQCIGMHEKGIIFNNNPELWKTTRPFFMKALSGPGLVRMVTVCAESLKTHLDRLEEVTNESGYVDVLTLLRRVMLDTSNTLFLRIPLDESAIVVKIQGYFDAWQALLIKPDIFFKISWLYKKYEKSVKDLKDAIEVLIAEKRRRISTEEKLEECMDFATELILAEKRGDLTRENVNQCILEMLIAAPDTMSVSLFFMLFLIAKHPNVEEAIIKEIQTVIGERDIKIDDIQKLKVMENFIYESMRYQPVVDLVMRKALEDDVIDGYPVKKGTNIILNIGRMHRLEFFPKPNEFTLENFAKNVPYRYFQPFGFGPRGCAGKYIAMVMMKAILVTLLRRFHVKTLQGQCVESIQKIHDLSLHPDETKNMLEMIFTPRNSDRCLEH
outcome-measure: IC50

See these solved cases before continuing.
{"structure-notation": "COc1ccc2ccc(-c3cncc(O)c3)c(Cl)c2c1", "IC50": "> 2000 nM"}
{"structure-notation": "Oc1ccc2ccc(-c3cccnc3)c(F)c2c1", "IC50": "> 2000 nM"}
{"structure-notation": "Oc1cncc(-c2ccc3ccc(O)cc3c2Cl)c1", "IC50": "> 2000 nM"}
{"structure-notation": "COc1ccc2ccc(-c3cncc(F)c3)c(Cl)c2c1", "IC50": "> 2000 nM"}
{"structure-notation": "COc1cncc(-c2ccc3ccc(OC)cc3c2Cl)c1", "IC50": "> 2000 nM"}
{"structure-notation": "COc1ccc2ccc(-c3cncc4ccccc34)c(Cl)c2c1", "IC50": "> 2000 nM"}

// next entry
Tell me the measured IC50 of Oc1ccc2ccc(-c3cncc4ccccc34)c(Cl)c2c1 , please. > 2000 nM

###

Organism: Homo sapiens
Test: Selectivity factor, ratio of IC50 for human CYP11B1 to IC50 for human CYP11B2
# Ratio IC50 values compiled below

See these solved cases before continuing.
{"structure-notation": "COc1cncc(-c2ccc3ccc(OC)cc3c2Cl)c1", "Ratio IC50": 19}
{"structure-notation": "COc1ccc2ccc(-c3cncc4ccccc34)c(Cl)c2c1", "Ratio IC50": 7}
{"structure-notation": "Oc1ccc2ccc(-c3cccnc3)c(F)c2c1", "Ratio IC50": 39}
{"structure-notation": "COc1ccc2ccc(-c3cccnc3)c(Cl)c2c1", "Ratio IC50": 94}
{"structure-notation": "COc1ccc2ccc(-c3cncnc3)c(Cl)c2c1", "Ratio IC50": 170}
{"structure-notation": "Oc1cncc(-c2ccc3ccc(O)cc3c2Cl)c1", "Ratio IC50": 104}
{"structure-notation": "COc1ccc2ccc(-c3cncc(F)c3)c(Cl)c2c1", "Ratio IC50": 37}
{"structure-notation": "Oc1ccc2ccc(-c3cncc4ccccc34)c(Cl)c2c1", "Ratio IC50": 4}

Tell me the measured Ratio IC50 of Oc1ccc2ccc(-c3cccnc3)c(Cl)c2c1 , please. 9

Tell me the measured Ratio IC50 of COc1ccc2ccc(-c3cncc(O)c3)c(Cl)c2c1 , please. 546

Tell me the measured Ratio IC50 of COc1ccc2ccc(-c3cccnc3)c(F)c2c1 , please. 95

Tell me the measured Ratio IC50 of Oc1ccc2ccc(-c3cncnc3)c(Cl)c2c1 , please. 110

Tell me the measured Ratio IC50 of Oc1ccc2ccc(-c3cccnc3)c(Cl)c2c1F , please. 9

###

Target: Cytochrome P450 11B2, mitochondrial (Homo sapiens, UniProt P19099)
Sequence (P19099 whole entry): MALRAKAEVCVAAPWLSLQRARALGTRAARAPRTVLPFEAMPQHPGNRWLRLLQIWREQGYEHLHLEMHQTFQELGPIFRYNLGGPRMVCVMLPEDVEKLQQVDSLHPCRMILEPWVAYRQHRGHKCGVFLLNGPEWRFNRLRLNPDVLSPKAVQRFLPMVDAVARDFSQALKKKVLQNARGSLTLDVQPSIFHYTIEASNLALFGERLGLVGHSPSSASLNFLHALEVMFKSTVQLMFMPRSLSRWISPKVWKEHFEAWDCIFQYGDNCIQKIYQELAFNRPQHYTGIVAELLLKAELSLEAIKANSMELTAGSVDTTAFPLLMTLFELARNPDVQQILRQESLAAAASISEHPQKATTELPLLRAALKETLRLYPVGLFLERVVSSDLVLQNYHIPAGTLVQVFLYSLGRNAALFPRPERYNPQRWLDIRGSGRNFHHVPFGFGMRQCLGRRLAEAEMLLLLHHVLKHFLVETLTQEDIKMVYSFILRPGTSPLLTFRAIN
Assay: Inhibition of human CYP11B2
outcome-measure: IC50 (nM)
Supply the numeric figure in nM, leaving out any unit text.

Tell me the measured IC50 of COc1ccc2ccc(-c3cccnc3)cc2c1 , please. 68

###

# pIC50 values compiled below
Biological target: UniProt:P08684
Sequence (P08684 whole entry): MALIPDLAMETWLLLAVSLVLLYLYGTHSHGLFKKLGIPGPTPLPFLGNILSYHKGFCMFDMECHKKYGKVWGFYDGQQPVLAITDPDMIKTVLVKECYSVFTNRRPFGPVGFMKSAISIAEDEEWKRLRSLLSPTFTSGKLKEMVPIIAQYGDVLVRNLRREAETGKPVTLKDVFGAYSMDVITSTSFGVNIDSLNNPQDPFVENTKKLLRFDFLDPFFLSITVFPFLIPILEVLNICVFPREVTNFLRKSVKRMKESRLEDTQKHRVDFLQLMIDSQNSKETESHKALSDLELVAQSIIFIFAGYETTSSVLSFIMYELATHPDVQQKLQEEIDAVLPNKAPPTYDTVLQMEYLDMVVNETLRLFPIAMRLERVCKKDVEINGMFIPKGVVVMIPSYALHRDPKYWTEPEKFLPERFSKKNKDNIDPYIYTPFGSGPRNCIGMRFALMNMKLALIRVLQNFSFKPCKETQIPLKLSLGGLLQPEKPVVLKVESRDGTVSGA
Assay: Inhibition of recombinant CYP3A4 (unknown origin) expressed in baculovirus-infected insect microsomes
pIC50: −log10 of the molar value.

See these solved cases before continuing.
{"structure-notation": "COc1cncc(-c2ccc3ccc(OC)cc3c2Cl)c1", "outcome-measure": "pIC50", "result": "< 5.00"}
{"structure-notation": "COc1ccc2ccc(-c3cncnc3)c(Cl)c2c1", "outcome-measure": "pIC50", "result": "< 5.00"}

Tell me the measured pIC50 of COc1ccc2ccc(-c3cccnc3)c(F)c2c1 , please. < 5.00

Tell me the measured pIC50 of Oc1ccc2ccc(-c3cccnc3)c(Cl)c2c1F , please. < 5.00

Tell me the measured pIC50 of COc1ccc2ccc(-c3cncc(F)c3)c(Cl)c2c1 , please. < 5.00

Tell me the measured pIC50 of COc1ccc2ccc(-c3cncc4ccccc34)c(Cl)c2c1 , please. < 5.00

Tell me the measured pIC50 of Oc1ccc2ccc(-c3cncc(F)c3)c(Cl)c2c1 , please. 5.45

Tell me the measured pIC50 of Oc1cncc(-c2ccc3ccc(O)cc3c2Cl)c1 , please. 5.30

###

Target: Cytochrome P450 11B1, mitochondrial (Homo sapiens, UniProt P15538)
Sequence (P15538 whole entry): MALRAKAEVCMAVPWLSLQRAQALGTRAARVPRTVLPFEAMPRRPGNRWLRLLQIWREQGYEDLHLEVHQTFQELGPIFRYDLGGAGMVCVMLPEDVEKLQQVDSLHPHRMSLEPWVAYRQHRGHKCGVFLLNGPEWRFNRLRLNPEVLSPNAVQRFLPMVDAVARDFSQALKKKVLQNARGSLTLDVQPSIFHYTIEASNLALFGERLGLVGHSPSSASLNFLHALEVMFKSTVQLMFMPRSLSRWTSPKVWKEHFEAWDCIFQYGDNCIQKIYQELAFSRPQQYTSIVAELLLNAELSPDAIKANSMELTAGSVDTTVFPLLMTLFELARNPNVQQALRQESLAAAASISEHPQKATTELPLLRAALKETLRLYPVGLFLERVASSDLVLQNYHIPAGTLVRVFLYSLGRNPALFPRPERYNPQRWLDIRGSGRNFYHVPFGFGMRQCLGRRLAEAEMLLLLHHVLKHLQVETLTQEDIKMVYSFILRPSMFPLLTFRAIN
Experiment: Inhibition of human CYP11B1 expressed in hamster V79MZh cells using [1,2-3H]-11-deoxycorticosterone as substrate
pIC50: −log10 of the molar value.
Decide by pIC50: equal to or exceeding 6 means t, less means f.

Examples with answers:
{"structure-notation": "COc1ccc2ccc(-c3cccnc3)c(Cl)c2c1F", "assigned-class": "f"}
{"structure-notation": "COc1ccc2ccc(-c3cncc4ccccc34)c(Cl)c2c1", "assigned-class": "t"}
{"structure-notation": "Oc1cncc(-c2ccc3ccc(O)cc3c2Cl)c1", "assigned-class": "f"}

Could you please find out whether Oc1ccc2ccc(-c3cccnc3)c(Cl)c2c1F has pIC50 that meets 6 or exceeds it? t

Could you please find out whether COc1ccc2ccc(-c3cncc(O)c3)c(Cl)c2c1 has pIC50 that meets 6 or exceeds it? f

###

Target: Steroid 17-alpha-hydroxylase/17,20 lyase (Homo sapiens)
Sequence (P05093 whole entry): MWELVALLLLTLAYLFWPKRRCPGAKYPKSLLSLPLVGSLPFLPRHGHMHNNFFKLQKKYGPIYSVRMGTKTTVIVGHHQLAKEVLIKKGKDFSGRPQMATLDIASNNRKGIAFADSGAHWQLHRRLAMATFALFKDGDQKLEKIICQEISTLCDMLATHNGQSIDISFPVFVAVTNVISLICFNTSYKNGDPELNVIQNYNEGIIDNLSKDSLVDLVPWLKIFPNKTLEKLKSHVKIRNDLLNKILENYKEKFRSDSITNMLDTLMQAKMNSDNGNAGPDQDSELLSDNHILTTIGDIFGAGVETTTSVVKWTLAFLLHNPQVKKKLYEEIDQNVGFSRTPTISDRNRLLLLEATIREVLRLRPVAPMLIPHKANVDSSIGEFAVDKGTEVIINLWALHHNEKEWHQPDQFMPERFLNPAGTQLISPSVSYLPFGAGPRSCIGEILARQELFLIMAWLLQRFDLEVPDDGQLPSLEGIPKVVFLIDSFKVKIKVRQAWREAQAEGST
Experiment: Inhibition of human CYP17 expressed in Escherichia coli using 1,2[3H]-progesterone as substrate in presence of NADPH
outcome-measure: pIC50
Remember the convention: pIC50 equals -log10 of concentration in molar.

See these solved cases before continuing.
{"structure-notation": "Oc1ccc2ccc(-c3cccnc3)c(F)c2c1", "measured-on": "Steroid 17-alpha-hydroxylase/17,20 lyase (Homo sapiens)", "outcome-measure": "pIC50", "measured-number": 6.28}
{"structure-notation": "Oc1ccc2ccc(-c3cccnc3)c(Cl)c2c1F", "measured-on": "Steroid 17-alpha-hydroxylase/17,20 lyase (Homo sapiens)", "outcome-measure": "pIC50", "measured-number": 6.43}
{"structure-notation": "COc1ccc2ccc(-c3cncc(F)c3)c(Cl)c2c1", "measured-on": "Steroid 17-alpha-hydroxylase/17,20 lyase (Homo sapiens)", "outcome-measure": "pIC50", "measured-number": 6.34}
{"structure-notation": "COc1cncc(-c2ccc3ccc(OC)cc3c2Cl)c1", "measured-on": "Steroid 17-alpha-hydroxylase/17,20 lyase (Homo sapiens)", "outcome-measure": "pIC50", "measured-number": 7.03}
{"structure-notation": "Oc1cncc(-c2ccc3ccc(O)cc3c2Cl)c1", "measured-on": "Steroid 17-alpha-hydroxylase/17,20 lyase (Homo sapiens)", "outcome-measure": "pIC50", "measured-number": 7.80}
{"structure-notation": "Oc1ccc2ccc(-c3cncnc3)c(Cl)c2c1", "measured-on": "Steroid 17-alpha-hydroxylase/17,20 lyase (Homo sapiens)", "outcome-measure": "pIC50", "measured-number": 5.82}

// next entry
Tell me the measured pIC50 of COc1ccc2ccc(-c3cccnc3)c(Cl)c2c1F , please. 6.83
